Biological target: T1, NtHY5 (6xHis-HY5) (Nicotiana tabacum, UniProt A0A1S3YJY6 1-158)
T1 sequence: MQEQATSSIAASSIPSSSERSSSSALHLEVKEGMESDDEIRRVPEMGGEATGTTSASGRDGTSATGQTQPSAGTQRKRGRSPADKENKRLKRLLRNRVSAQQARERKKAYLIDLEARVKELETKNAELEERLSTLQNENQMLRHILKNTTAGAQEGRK
Assay: EMSA
metric.name: binding result

Worked set:
INSERT INTO assay_data (binder, metric_name, test_result) VALUES
  ('NtQPT P1 (G-BOX I) (dsDNA) DNA 1: CATAAATAAAACGTGTTCAGCTACTAAAAC DNA 2: GTTTTAGTAGCTGAACACGTTTTATTTATG', 'binding result', 'binds'),
  ('NtMYB12 P1 (G-BOX I) (dsDNA) DNA 1: AACTTGAAATAATACGTTAAAAGATAAAA DNA 2: TTTTATCTTTTAACGTATTATTTCAAGT', 'binding result', 'binds'),
  ('NtQPT Mut P1 (dsDNA) DNA 1: CATAAATAAAATTCATTCAGCTACTAAAAC DNA 2: GTTTTAGTAGCTGAATGAATTTTATTTATG', 'binding result', 'no binding'),
  ('NtODC Mut P1 (dsDNA) DNA 1: ATCTGATCACCTAATATCACCAAGAAAATA DNA 2: TATTTTCTTGGTGATATTAGGTGATCAGAT', 'binding result', 'no binding');

From here, focus on the item given below.
The recorded binding result for entry NtPMT P1 (G-BOX I) (dsDNA) DNA 1: CAGTCTAACCATGCACGTTGTAATGATTTT DNA 2: AAAATCATTACAACGTGCATGGTTAGACTG equals binds
